B1: Gamma-crystallin D, residues 90 to 170; numbered along this chain, P07320 (parent)
chain: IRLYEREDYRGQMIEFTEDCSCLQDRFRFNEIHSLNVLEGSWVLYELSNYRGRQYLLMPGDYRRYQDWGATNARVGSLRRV

Variants of: B1
Test: abundance fitness (aPCA) (normalised: wild type 0, dead -1); higher = more abundant; growth selection in yeast, the domain comes from the species named
Conditions: Homo sapiens
Consider the following variants; for each one, report its abundance fitness.

Some variants with known abundance fitness results, for comparison:
{"columns": ["Variant", "abundance fitness"],
 "data": [
  ["F29D", 0.008],
  ["P59C", 0.011],
  ["R26H", 0.008],
  ["Q54E", 0.018]
]}

Would you mind giving abundance fitness for every variant in the list below?
1. E15K
2. S41K
3. S48Y

[reply]
1: 0.204; 2: 0.045; 3: -0.194

Hello, I would appreciate it if you could give abundance fitness for each entry below.
1. G52Q
2. D8W
3. W42P
4. Y9N
5. Q24T
6. M58P
7. V37W
8. E31T

[reply]
1: -0.599; 2: -0.153; 3: -0.923; 4: 0.217; 5: -0.08; 6: 0.201; 7: -0.895; 8: 0.048

Need abundance fitness for each of these variants.
1. E15C
2. R26D
3. M58Y
4. S34A
5. D25V

[reply]
[0.008, -0.053, 0.174, 0.112, -0.051]

Data provenance: the Human Domainome abundance scans (Beltran et al. 2025)
